- protocol summary: Single-dose pharmacokinetics in dogs (plasma, UHPLC/MS/MS)
- Format: in vivo, Beagle dogs
- setup conditions: both sexes, beagle, dog, plasma, po, 49.6 mg/kg
measure: Cmax

Task: Which Cmax reading was recorded for the compound C[C@@H]1O[C@@H](O[C@H]2[C@H](Oc3cc(O)c4c(c3)O[C@H](c3ccc(O)cc3)CC4=O)O[C@H](CO)[C@@H](O)[C@@H]2O)[C@H](O)[C@H](O)[C@H]1O [naringin, Naringin] ?
Output: 0.107 µg/mL

====

- protocol summary: Single-dose pharmacokinetics in rats (plasma, UHPLC/MS/MS)
- Format: in vivo, Sprague Dawley rats
- setup conditions: male, Sprague Dawley, rat, plasma, po, 42 mg/kg
measure: AUC(0-t)

Task: I have this molecule here, `C[C@@H]1O[C@@H](O[C@H]2[C@H](Oc3cc(O)c4c(c3)O[C@H](c3ccc(O)cc3)CC4=O)O[C@H](CO)[C@@H](O)[C@@H]2O)[C@H](O)[C@H](O)[C@H]1O` , and I need its recorded AUC(0-t).
Output: 68.1 ng·h/mL

====

- protocol summary: Single-dose pharmacokinetics in dogs (plasma, UHPLC/MS/MS)
- Format: in vivo, Beagle dogs
- setup conditions: female, Beagle, dog, plasma, iv, 12.4 mg/kg
measure: AUC(0-t) (ng·h/mL)
Give a bare numeral; the unit ng·h/mL is implied.

Task: Looking for the measured AUC(0-t) of C[C@@H]1O[C@@H](O[C@H]2[C@H](Oc3cc(O)c4c(c3)O[C@H](c3ccc(O)cc3)CC4=O)O[C@H](CO)[C@@H](O)[C@@H]2O)[C@H](O)[C@H](O)[C@H]1O [naringin, Naringin] , can you help?
Output: 3190

====

Listing: Tmax of selected molecules
- protocol summary: Single-dose pharmacokinetics in rats (plasma, UHPLC/MS/MS)
- Assay type: in vivo, Sprague Dawley rats
- setup conditions: female, Sprague Dawley, rat, plasma, iv, 42 mg/kg
Value expressed in min; do not type the unit.

O=C1C[C@@H](c2ccc(O)cc2)Oc2cc(O)cc(O)c21 = 2.58

Proceed to the following item.
Task: Requested field: Tmax. Item: `C[C@@H]1O[C@@H](O[C@H]2[C@H](Oc3cc(O)c4c(c3)O[C@H](c3ccc(O)cc3)CC4=O)O[C@H](CO)[C@@H](O)[C@@H]2O)[C@H](O)[C@H](O)[C@H]1O`
Output: 1.8

====

- protocol summary: Single ascending dose and food-effect pharmacokinetics of naringin tablets in healthy humans
- Type: in vivo, human
- setup conditions: both sexes, human, plasma, oral, naringenin in humans, studies overall
measure: half-life (h)
Give the quantity in h, number only.

Task: Look up half-life for this compound: `O=C1C[C@@H](c2ccc(O)cc2)Oc2cc(O)cc(O)c21`
Output: 2.6

====

- protocol summary: Single-dose pharmacokinetics in rats (plasma, UHPLC/MS/MS)
- Format: in vivo, Sprague Dawley rats
- setup conditions: female, Sprague Dawley, rat, plasma, po, 168 mg/kg
measure: Tmax (h)
The reply should contain only the number, in h.

Task: Request the reported Tmax associated with C[C@@H]1O[C@@H](O[C@H]2[C@H](Oc3cc(O)c4c(c3)O[C@H](c3ccc(O)cc3)CC4=O)O[C@H](CO)[C@@H](O)[C@@H]2O)[C@H](O)[C@H](O)[C@H]1O [naringin, Naringin]
Output: 1.95

====

- protocol summary: Single ascending dose and food-effect pharmacokinetics of naringin tablets in healthy humans
- Type: in vivo, human
- setup conditions: both sexes, human, plasma, po, 40 mg, naringin 40 mg p.o. single dose
measure: Tmax (h)
Field: numeric (h). Do not append units.

Task: Entry `C[C@@H]1O[C@@H](O[C@H]2[C@H](Oc3cc(O)c4c(c3)O[C@H](c3ccc(O)cc3)CC4=O)O[C@H](CO)[C@@H](O)[C@@H]2O)[C@H](O)[C@H](O)[C@H]1O` has what Tmax?
Output: 1.97

====

- protocol summary: Single ascending dose and food-effect pharmacokinetics of naringin tablets in healthy humans
- Format: in vivo, human
- setup conditions: male, human, plasma, po, 160 mg, naringin 160 mg p.o. single dose, high-fat diet group, human, male
measure: AUC(0-t) (ng·h/mL)
Just the number please, in ng·h/mL, no unit attached.

Task: Quick one: AUC(0-t) for `C[C@@H]1O[C@@H](O[C@H]2[C@H](Oc3cc(O)c4c(c3)O[C@H](c3ccc(O)cc3)CC4=O)O[C@H](CO)[C@@H](O)[C@@H]2O)[C@H](O)[C@H](O)[C@H]1O` ?
Output: 9.56

====

- protocol summary: Single ascending dose and food-effect pharmacokinetics of naringin tablets in healthy humans
- Assay type: in vivo, human
- setup conditions: female, human, plasma, po, 40 mg, naringin 40 mg p.o. single dose
measure: half-life (h)
Respond with the bare value in h.

Task: Give its half-life value. Item: `C[C@@H]1O[C@@H](O[C@H]2[C@H](Oc3cc(O)c4c(c3)O[C@H](c3ccc(O)cc3)CC4=O)O[C@H](CO)[C@@H](O)[C@@H]2O)[C@H](O)[C@H](O)[C@H]1O`
Output: 1.49

====

- protocol summary: Single ascending dose and food-effect pharmacokinetics of naringin tablets in healthy humans
- Assay type: in vivo, human
- setup conditions: female, human, plasma, po, 80 mg, naringin 80 mg p.o. single dose
measure: Tmax (h)
Dear colleague, please return just the value in h, with no unit written.

Task: Dear colleague, I am looking for the recorded Tmax of the following molecule: C[C@@H]1O[C@@H](O[C@H]2[C@H](Oc3cc(O)c4c(c3)O[C@H](c3ccc(O)cc3)CC4=O)O[C@H](CO)[C@@H](O)[C@@H]2O)[C@H](O)[C@H](O)[C@H]1O [naringin, Naringin]
Output: 1.44

====

- protocol summary: Single-dose pharmacokinetics in dogs (plasma, UHPLC/MS/MS)
- Assay type: in vivo, Beagle dogs
- setup conditions: female, Beagle, dog, plasma, po, 12.4 mg/kg
measure: Cmax (ng/mL)
Express it in ng/mL; write the number only.

Task: Any idea what Cmax was measured for C[C@@H]1O[C@@H](O[C@H]2[C@H](Oc3cc(O)c4c(c3)O[C@H](c3ccc(O)cc3)CC4=O)O[C@H](CO)[C@@H](O)[C@@H]2O)[C@H](O)[C@H](O)[C@H]1O [naringin, Naringin] ?
Output: 60.2

====

- protocol summary: Single-dose pharmacokinetics in dogs (plasma, UHPLC/MS/MS)
- Type: in vivo, Beagle dogs
- setup conditions: female, Beagle, dog, plasma, po, 49.6 mg/kg
measure: half-life (h)
Field: numeric (h). Do not append units.

Task: Given the entry `C[C@@H]1O[C@@H](O[C@H]2[C@H](Oc3cc(O)c4c(c3)O[C@H](c3ccc(O)cc3)CC4=O)O[C@H](CO)[C@@H](O)[C@@H]2O)[C@H](O)[C@H](O)[C@H]1O` , report its measured half-life.
Output: 1.13

====

- protocol summary: Single-dose pharmacokinetics in dogs (plasma, UHPLC/MS/MS)
- Type: in vivo, Beagle dogs
- setup conditions: both sexes, beagle, dog, plasma, po, 49.6 mg/kg
measure: Tmax (h)
Give the number; h is assumed, so skip it.

Task: Param item = C[C@@H]1O[C@@H](O[C@H]2[C@H](Oc3cc(O)c4c(c3)O[C@H](c3ccc(O)cc3)CC4=O)O[C@H](CO)[C@@H](O)[C@@H]2O)[C@H](O)[C@H](O)[C@H]1O [naringin, Naringin] ; retrieve measured Tmax.
Output: 1

====

- protocol summary: Single ascending dose and food-effect pharmacokinetics of naringin tablets in healthy humans
- Assay type: in vivo, human
- setup conditions: female, human, plasma, po, 160 mg, naringin 160 mg p.o. single dose
- Experimental: Participants were healthy males and females, 18 to 40 years old, ≥50 kg weight, 19 to 25 kg m^2 body mass index. […] The optimal volume and activity in unit volume of enzyme solution [0.2 M acetic acid/water solution: 0.2 M ammonium acetate/water solution, 15:35 (v/v)] were determined through a pretest of the enzyme (rat plasma, 10 μl, 10 U μl^-1; dog plasma, 10 μl, 10 U μl^-1; human plasma, 20 μl, 20 U μl^-1; human urine, 10 μl, 10 U μl^-1). […]
measure: Tmax (h)
Kindly provide the numeric value in h only, without the unit symbol.

Task: May I ask what Tmax has been recorded for C[C@@H]1O[C@@H](O[C@H]2[C@H](Oc3cc(O)c4c(c3)O[C@H](c3ccc(O)cc3)CC4=O)O[C@H](CO)[C@@H](O)[C@@H]2O)[C@H](O)[C@H](O)[C@H]1O [naringin, Naringin] ?
Output: 3.25

====

- protocol summary: Single-dose pharmacokinetics in dogs (plasma, UHPLC/MS/MS)
- Type: in vivo, Beagle dogs
- setup conditions: male, Beagle, dog, plasma, po, 3.1 mg/kg
measure: Cmax (ng/mL)
Give the value in ng/mL but do not write ng/mL after it.

Task: What value of Cmax has been reported for the following compound? `C[C@@H]1O[C@@H](O[C@H]2[C@H](Oc3cc(O)c4c(c3)O[C@H](c3ccc(O)cc3)CC4=O)O[C@H](CO)[C@@H](O)[C@@H]2O)[C@H](O)[C@H](O)[C@H]1O`
Output: 42.9

Values compiled from paper PMC7118210.
